Reported Kd is given for each of the following compounds.
target: TSLP (Homo sapiens, UniProt Q969D9); assay: Human TSLP Surface Plasmon Resonance (SPR) binding assay; details: biotinylated human TSLP immobilized on streptavidin chip; 20° C.; steady-state or kinetic 1:1 fit; read-out: hTSLP SPR Kd
Sequence (Q969D9 29-159): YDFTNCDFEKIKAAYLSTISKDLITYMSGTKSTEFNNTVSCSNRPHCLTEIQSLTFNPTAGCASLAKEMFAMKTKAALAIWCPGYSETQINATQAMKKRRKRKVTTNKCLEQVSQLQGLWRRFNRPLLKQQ
Number in nM, nothing else.

compound	test.target	Kd / nM
CC(=O)N[C@H]1CSCCC(=O)N2CN3CN(C2)C(=O)CCSC[C@H](NC(=O)[C@H](CC(=O)O)NC(=O)[C@H](CCC(=O)O)NC(=O)[C@H](CC(C)C)NC(=O)[C@H](Cc2c[nH]c4ccccc24)NC(=O)[C@H](CCC(N)=O)NC1=O)C(=O)N[C@@H](Cc1c[nH]c2ccccc12)C(=O)N[C@@H](CCCNC(=N)N)C(=O)NCC(=O)N[C@@H](Cc1cc(F)c(F)c(F)c1)C(=O)N[C@H](C(N)=O)CSCCC3=O [Example 37, Ac-(SEQ ID NO: 33)]	TSLP (Homo sapiens, UniProt Q969D9)	19
CC(=O)N[C@H]1CSCCC(=O)N2CN3CN(C2)C(=O)CCSC[C@H](NC(=O)[C@H](CC(=O)O)NC(=O)[C@H](CCC(=O)O)NC(=O)[C@H](CC(C)C)NC(=O)[C@H](Cc2c[nH]c4ccccc24)NC(=O)[C@H](CCC(N)=O)NC1=O)C(=O)N[C@@H](Cc1c[nH]c2ccccc12)C(=O)N[C@@H](CCCNC(=N)N)C(=O)NCC(=O)N[C@@H](CCc1ccccc1)C(=O)N[C@H](C(N)=O)CSCCC3=O [Example 148, Ac-(SEQ ID NO: 107)]	TSLP (Homo sapiens, UniProt Q969D9)	1100

Please turn your attention to the following entry.
Tested system TSLP (Homo sapiens, UniProt Q969D9); Kd recorded for CC(=O)N[C@H]1CSCCC(=O)N2CN3CN(C2)C(=O)CCSC[C@H](NC(=O)[C@H](CC(=O)O)NC(=O)[C@H](CCC(=O)O)NC(=O)[C@H](CC(C)C)NC(=O)[C@H](Cc2c[nH]c4ccccc24)NC(=O)[C@H](CCC(N)=O)NC1=O)C(=O)N[C@@H](Cc1c[nH]c2ccccc12)C(=O)N[C@@H](CCCNC(=N)N)C(=O)NCC(=O)N[C@@H](Cc1ccc(Cl)c(F)c1)C(=O)N[C@H](C(N)=O)CSCCC3=O [Example 41, Ac-(SEQ ID NO: 37)] was 24
